# SYSTEM_UNDER_TEST: recombinant human GST-Syk (Homo sapiens (Human))
# PROCEDURE_DETAILS: Homogeneous Time-Resolved Fluorescence (HTRF) assay for the recombinant human Syk enzyme
# CONDITIONS_USED: recombinant human GST-Syk 5 pM, ATP 25 μM, read-out: rhSyk IC50
pIC50: −log10 of the molar value.
ENDPOINT_NAME: pIC50

Here's what some known entries look like.
COMPOUND	pIC50
Cc1cc(Nc2cc(C(F)F)ccn2)nc(-c2ccc(C(C)(O)[C@H]3CC[C@H](C(=O)OC(C)OC(=O)OC(C)C)CC3)nc2)c1 (single isomer, unassigned) [Example 20-7]	7.00
Cc1cc(Nc2cc(C(F)(F)F)ccn2)nc(-c2ccc(NC3CCN(C(=O)Cc4cccc5ncccc45)CC3)nc2)c1	8.40
CCOC(=O)OC(C)OC(=O)[C@H]1CC[C@H](C(C)(O)c2ccc(-c3cc(C)cc(Nc4cc(C(F)F)ccn4)n3)cn2)CC1 (single isomer, unassigned) [Example 20-5]	7.49
Cc1cc(Nc2cc(C(F)(F)F)ccn2)nc(-c2ccc(NC3CCN(C(=O)c4cccc(-n5cccn5)c4)CC3)nc2)c1	8.00
CC(=O)Nc1cccc(C(=O)N2CCC(Nc3ccc(-c4cc(C)cc(Nc5cc(C(F)(F)F)ccn5)n4)cn3)CC2)c1	8.40
Cc1cc(Nc2cc(C(F)F)ccn2)nc(-c2ccc(C(C)(O)[C@H]3CC[C@H](C(=O)OCCO)CC3)nc2)c1 (single isomer, unassigned)	8.47

a. Cc1cc(Nc2cc(C(F)(F)F)ccn2)nc(-c2ccc(N3CCCC3C(=O)O)nc2)c1 (stereo not shown) [Example 2-10]
b. CCOC(=O)OC(C)OC(=O)[C@H]1CC[C@H](C(C)(O)c2ccc(-c3cc(C)cc(Nc4cc(C(F)F)ccn4)n3)cn2)CC1 (single isomer, unassigned) [Example 20-2]
Lab note: check whether a or b shows the higher recorded pIC50. Indicate which entry you chose by stating its label.
a

A. Cc1cc(Nc2cc(C(F)F)ccn2)nc(-c2ccc(C(C)(O)[C@H]3CC[C@H](C(=O)OCC(=O)N(C)C)CC3)nc2)c1 (single isomer, unassigned)
B. Cc1cc(Nc2cc(C(F)(F)F)ccn2)nc(-c2ccc(NC3CCNC3=O)nc2)c1 (stereo not shown) [Example 2-9]
Lab note: check whether A or B shows the higher recorded pIC50. Indicate which entry you chose by stating its label.
A
(A: 8.92, B: 8.40)

---

# SYSTEM_UNDER_TEST: recombinant human GST-Syk (Homo sapiens (Human), UniProt P43405)
# PROCEDURE_DETAILS: Homogeneous Time-Resolved Fluorescence (HTRF) assay for the recombinant human Syk enzyme
# Type: biochemical
# CONDITIONS_USED: recombinant human GST-Syk 5 pM, ATP 25 μM, read-out: rhSyk IC50
pIC50: −log10 of the molar value.
ENDPOINT_NAME: pIC50

COMPOUND	SYSTEM_UNDER_TEST	REPORTED
Cc1cc(Nc2cc(C(F)(F)F)ccn2)nc(-c2ccc(N3CCCC(NC(=O)c4ccc5cc[nH]c5c4)C3)nc2)c1 (stereo not drawn)	recombinant human GST-Syk (Homo sapiens (Human), UniProt P43405)	7.49

a. Cc1cc(Nc2cc(C(F)(F)F)ccn2)nc(-c2ccc(NC3CCN(C(=O)c4ccc5nc(C)c(C)nc5c4)CC3)nc2)c1
b. Cc1cc(Nc2cc(C(F)(F)F)ccn2)nc(-c2ccc(NC3CCN(C(=O)c4cccc(-c5cn[nH]c5)c4)CC3)nc2)c1
c. Cc1cc(Nc2cc(C(F)(F)F)ccn2)nc(-c2ccc(NC3CCN(C(=O)Cc4ccccc4C(F)(F)F)CC3)nc2)c1
d. Cc1cc(Nc2cc(C(F)F)ccn2)nc(-c2ccc(C(C)(O)[C@H]3CC[C@@H](C(=O)O)CC3)nc2)c1 (single isomer, unassigned) [Example 12-3]
e. Cc1cc(Nc2cc(C(F)(F)F)ccn2)nc(-c2ccc(NC3CCN(C(=O)Cc4n[nH]c5ccccc45)CC3)nc2)c1
Ranking field: pIC50; order: falling. To answer, write out the labels according to the requested order.
d, a, e, b, c
